Provenance of the data: patent US20230331803A1

Assay: Pharmacokinetic studies in Beagle dogs after oral administration of SNAC-based tablets
Format: in vivo
Conditions: male, Beagle, dog, plasma, po, dogs, oral administration (tablet); read-out: Tmax
Procedure: To be able to evaluate oral exposure following tablet dosing, tablet compositions comprising the test substance and SNAC (sodium N-(8-(2-hydroxybenzoyl)amino)caprylate) were prepared by mixing test substance with roller compacted SNAC and magnesium stearate as, e.g., described in WO 2019/149880. […] Plasma concentration of the GLP-1 receptor-amylin receptor co-agonists were determined using LCMS. Individual plasma concentration-time profiles were analysed by a non-compartmental model in WinNonlin v. […]
Starred links: 1 amine or outer side, 2 acyl side, 3 side chain; linkers in the order of their positions; H or OH if unused. Non-standard residues stand in square brackets, D forms with d. Groups on a side chain read outwards from the residue. *: point of attachment. Decanoyl(10-O(3-COOH-Ph)) = O=C(O)c1cccc(OCCCCCCCCCC(=O)*)c1; γGlu = O=C(O)[C@H](CCC(=O)[*:2])N[*:1]; AEEA = NCCOCCOCC(=O)O; Aib = CC(C)(N)C(=O)O
Measurement label: Tmax (h)
Kindly provide the numeric value in h only, without the unit symbol.

Problem: Recorded Tmax of H-H[Aib]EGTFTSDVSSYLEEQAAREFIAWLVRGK([AEEA-AEEA-γGlu-Decanoyl(10-O(3-COOH-Ph))])K([AEEA-AEEA-γGlu-Decanoyl(10-O(3-COOH-Ph))])GGGGASELSTAALGRLSAELHELATLPRTETGSGSP-NH2 [Compound 0235] , please.
Solution: 1
